subjectOfTest: human TRPA1 (Homo sapiens, UniProt O75762)
Construct: expressed in transfected cells; host or cells: CHO cells (G-418 selection)
Sequence (O75762 whole entry): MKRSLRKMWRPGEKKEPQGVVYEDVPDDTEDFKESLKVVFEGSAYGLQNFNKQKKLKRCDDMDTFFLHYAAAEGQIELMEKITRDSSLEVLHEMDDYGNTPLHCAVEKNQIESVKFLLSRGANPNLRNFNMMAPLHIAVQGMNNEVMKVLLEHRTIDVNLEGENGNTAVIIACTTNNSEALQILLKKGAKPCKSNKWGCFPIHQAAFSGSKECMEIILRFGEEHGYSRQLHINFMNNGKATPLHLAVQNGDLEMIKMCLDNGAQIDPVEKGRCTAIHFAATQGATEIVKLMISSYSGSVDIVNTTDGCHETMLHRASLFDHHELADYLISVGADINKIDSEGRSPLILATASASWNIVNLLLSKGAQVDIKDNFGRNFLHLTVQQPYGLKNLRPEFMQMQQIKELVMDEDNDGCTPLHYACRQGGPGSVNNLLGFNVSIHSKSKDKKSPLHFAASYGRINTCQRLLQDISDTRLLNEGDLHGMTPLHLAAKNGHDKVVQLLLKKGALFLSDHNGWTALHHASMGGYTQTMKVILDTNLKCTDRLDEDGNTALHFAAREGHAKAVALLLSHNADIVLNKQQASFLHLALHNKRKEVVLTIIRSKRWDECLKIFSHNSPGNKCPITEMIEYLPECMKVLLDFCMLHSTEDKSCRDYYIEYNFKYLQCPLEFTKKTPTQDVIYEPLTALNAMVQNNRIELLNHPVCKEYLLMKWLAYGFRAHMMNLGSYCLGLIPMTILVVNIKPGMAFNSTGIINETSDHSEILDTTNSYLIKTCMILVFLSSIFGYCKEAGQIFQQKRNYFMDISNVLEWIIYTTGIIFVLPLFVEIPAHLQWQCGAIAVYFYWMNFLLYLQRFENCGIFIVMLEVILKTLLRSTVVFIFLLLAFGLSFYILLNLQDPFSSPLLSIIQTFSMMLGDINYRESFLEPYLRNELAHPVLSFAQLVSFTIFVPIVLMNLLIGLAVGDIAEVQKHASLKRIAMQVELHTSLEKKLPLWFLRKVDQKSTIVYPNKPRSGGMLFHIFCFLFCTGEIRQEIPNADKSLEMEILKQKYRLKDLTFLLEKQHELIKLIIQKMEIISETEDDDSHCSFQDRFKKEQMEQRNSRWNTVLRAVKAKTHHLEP
assayOverview: 45Calcium uptake assay: inhibition of AITC induced cellular uptake of radioactive calcium, human TRPA1 expressing CHO cells
Format: cell-based
statedConditions: 10.0 μM compound, AITC 30 μM, read-out: human TRPA1 Percentage inhibition at 10.0 μM
quantityName: inhibition at 10 µM (%)
Respond numerically; units are % and should not be typed.

Look over these answered cases.
{"testSmiles": "Cn1c(=O)c2c(CC(=O)Nc3nc(-c4cc(F)c(OCC(C)(C)C)c(F)c4)cs3)coc2n(C)c1=O", "subjectOfTest": "human TRPA1 (Homo sapiens, UniProt O75762)", "inhibition at 10 µM [%]": 99.9}
{"testSmiles": "Cn1c(=O)c2c(CC(=O)Nc3nc(-c4ccc(OCC(F)(F)F)c(F)c4)cs3)coc2n(C)c1=O", "subjectOfTest": "human TRPA1 (Homo sapiens, UniProt O75762)", "inhibition at 10 µM [%]": 100}
{"testSmiles": "Cn1c(=O)c2c(CC(=O)Nc3nc(-c4cc(F)c(OCC(F)(F)F)c(Cl)c4)cs3)coc2n(C)c1=O", "subjectOfTest": "human TRPA1 (Homo sapiens, UniProt O75762)", "inhibition at 10 µM [%]": 95.1}
{"testSmiles": "Cn1c(=O)c2c(CC(=O)Nc3nc(-c4cccc(OC(F)(F)F)c4)cs3)coc2n(C)c1=O", "subjectOfTest": "human TRPA1 (Homo sapiens, UniProt O75762)", "inhibition at 10 µM [%]": 100}
{"testSmiles": "Cn1c(=O)c2c(CC(=O)Nc3nc(-c4ccc(OC(F)F)c(F)c4)cs3)coc2n(C)c1=O", "subjectOfTest": "human TRPA1 (Homo sapiens, UniProt O75762)", "inhibition at 10 µM [%]": 99}
{"testSmiles": "Cn1c(=O)c2c(CC(=O)Nc3nc(-c4ccc(Cl)c(OC(F)(F)F)c4)cs3)coc2n(C)c1=O", "subjectOfTest": "human TRPA1 (Homo sapiens, UniProt O75762)", "inhibition at 10 µM [%]": 100}
{"testSmiles": "Cn1c(=O)c2c(CC(=O)Nc3nc(-c4cccc(C(F)(F)F)c4)cs3)coc2n(C)c1=O", "subjectOfTest": "human TRPA1 (Homo sapiens, UniProt O75762)", "inhibition at 10 µM [%]": 99.8}
{"testSmiles": "Cn1c(=O)c2c(CC(=O)Nc3nc(-c4cc(Cl)c(OCC(C)(C)C)c(Cl)c4)cs3)coc2n(C)c1=O", "subjectOfTest": "human TRPA1 (Homo sapiens, UniProt O75762)", "inhibition at 10 µM [%]": 99.7}
{"testSmiles": "Cn1c(=O)c2c(CC(=O)Nc3nc(-c4ccc(F)c(C(F)(F)F)c4F)cs3)coc2n(C)c1=O", "subjectOfTest": "human TRPA1 (Homo sapiens, UniProt O75762)", "inhibition at 10 µM [%]": 98.4}
{"testSmiles": "Cn1c(=O)c2c(CC(=O)Nc3nc(-c4ccc(OCC(F)(F)F)c(Br)c4)cs3)coc2n(C)c1=O", "subjectOfTest": "human TRPA1 (Homo sapiens, UniProt O75762)", "inhibition at 10 µM [%]": 99.5}

Input: Given the compound CC(C)COc1c(F)cc(-c2csc(NC(=O)Cc3coc4c3c(=O)n(C)c(=O)n4C)n2)cc1F , what is its reported inhibition at 10 µM?
Output: 99.2

Input: Query Cn1c(=O)c2c(CC(=O)Nc3nc(-c4ccc(F)c(C(F)(F)F)c4)cs3)coc2n(C)c1=O next
Output: 99.8

Input: Query Cc1oc2c(c1CC(=O)Nc1nc(-c3cccc(C(F)(F)F)c3)cs1)c(=O)n(C)c(=O)n2C next
Output: 100

Input: Query Cn1c(=O)c2c(CC(=O)Nc3nc(-c4ccc(OC(F)(F)F)cc4)cs3)coc2n(C)c1=O next
Output: 98.8

Input: Query Cn1c(=O)c2c(CC(=O)Nc3nc(-c4cc(F)c(OC(F)F)c(F)c4)cs3)coc2n(C)c1=O next
Output: 99.7

Input: Query Cn1c(=O)c2c(CC(=O)Nc3nc(-c4cccc(C(F)(F)F)c4F)cs3)coc2n(C)c1=O next
Output: 97.5

Input: Query Cn1c(=O)c2c(CC(=O)Nc3nc(-c4ccc(Cl)c(Cl)c4Cl)cs3)coc2n(C)c1=O next
Output: 99.7

Input: Query Cn1c(=O)c2c(CC(=O)Nc3nc(-c4ccc(C(F)(F)F)c(F)c4)cs3)coc2n(C)c1=O next
Output: 99.7

Input: Query Cn1c(=O)c2c(CC(=O)Nc3nc(-c4cc(F)cc(C(F)(F)F)c4)cs3)coc2n(C)c1=O next
Output: 99.8

Input: Query Cn1c(=O)c2c(CC(=O)Nc3nc(-c4ccc(F)c(OC(F)(F)F)c4)cs3)coc2n(C)c1=O next
Output: 99.2

Input: Query Cn1c(=O)c2c(CC(=O)Nc3nc(-c4ccc(OCC(C)(C)C)c(Cl)c4)cs3)coc2n(C)c1=O next
Output: 99.2

Input: Query Cn1c(=O)c2c(CC(=O)Nc3nc(-c4ccc(OC(F)(F)F)c(F)c4)cs3)coc2n(C)c1=O next
Output: 100

Input: Query Cc1oc2c(c1CC(=O)Nc1nc(-c3cccc(Cl)c3Cl)cs1)c(=O)n(C)c(=O)n2C next
Output: 99

Input: Query Cn1c(=O)c2c(CC(=O)Nc3nc(-c4ccc(OCC(C)(C)C)c(Br)c4)cs3)coc2n(C)c1=O next
Output: 99.3

Input: Query CC(C)CCOc1c(F)cc(-c2csc(NC(=O)Cc3coc4c3c(=O)n(C)c(=O)n4C)n2)cc1F next
Output: 98.1

---

subjectOfTest: rat TRPA1 (Rattus norvegicus, UniProt Q6RI86)
Sequence (Q6RI86 whole entry): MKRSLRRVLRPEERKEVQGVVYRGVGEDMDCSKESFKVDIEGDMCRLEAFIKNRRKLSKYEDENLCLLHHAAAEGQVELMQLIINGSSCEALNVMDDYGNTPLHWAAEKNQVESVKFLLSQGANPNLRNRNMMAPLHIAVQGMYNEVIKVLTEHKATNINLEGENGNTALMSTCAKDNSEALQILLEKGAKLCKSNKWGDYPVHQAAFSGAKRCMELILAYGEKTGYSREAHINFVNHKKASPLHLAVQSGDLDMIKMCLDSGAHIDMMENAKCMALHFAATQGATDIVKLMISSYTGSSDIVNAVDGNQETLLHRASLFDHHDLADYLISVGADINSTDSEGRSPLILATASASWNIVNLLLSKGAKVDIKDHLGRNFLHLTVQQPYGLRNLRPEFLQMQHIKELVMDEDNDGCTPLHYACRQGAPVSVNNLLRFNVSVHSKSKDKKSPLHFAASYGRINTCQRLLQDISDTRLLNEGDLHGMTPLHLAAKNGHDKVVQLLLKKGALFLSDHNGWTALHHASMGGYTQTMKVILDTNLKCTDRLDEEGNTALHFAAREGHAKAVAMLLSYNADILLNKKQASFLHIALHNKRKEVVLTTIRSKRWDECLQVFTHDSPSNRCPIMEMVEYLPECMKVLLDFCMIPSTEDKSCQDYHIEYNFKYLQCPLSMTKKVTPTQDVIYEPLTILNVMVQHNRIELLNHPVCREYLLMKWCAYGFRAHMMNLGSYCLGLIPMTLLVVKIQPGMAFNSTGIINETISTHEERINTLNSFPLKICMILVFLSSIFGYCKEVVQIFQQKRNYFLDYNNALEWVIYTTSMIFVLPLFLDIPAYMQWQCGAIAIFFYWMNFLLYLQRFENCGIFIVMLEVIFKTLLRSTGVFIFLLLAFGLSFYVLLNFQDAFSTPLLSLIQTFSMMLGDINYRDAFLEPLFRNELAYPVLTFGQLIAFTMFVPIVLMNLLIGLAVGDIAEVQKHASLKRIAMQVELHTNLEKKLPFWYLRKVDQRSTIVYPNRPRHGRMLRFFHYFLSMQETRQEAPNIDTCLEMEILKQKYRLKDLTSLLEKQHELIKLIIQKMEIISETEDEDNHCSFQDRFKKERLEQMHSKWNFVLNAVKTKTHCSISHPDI
assayOverview: 45Calcium uptake assay: inhibition of AITC induced cellular uptake of radioactive calcium, rat TRPA1 expressing CHO cells
statedConditions: class symbols, AITC 10 μM
quantityName: IC50

Look over these answered cases.
{"compound": "Cc1oc2c(c1CC(=O)Nc1nc(-c3ccc(F)c(C(F)(F)F)c3F)cs1)c(=O)n(C)c(=O)n2C [Example 83]", "subjectOfTest": "rat TRPA1 (Rattus norvegicus, UniProt Q6RI86)", "IC50": "< 50 nM"}
{"compound": "Cc1oc2c(c1CC(=O)Nc1nc(-c3cc(F)c(OCC(C)C)c(F)c3)cs1)c(=O)n(C)c(=O)n2C [Example 81]", "subjectOfTest": "rat TRPA1 (Rattus norvegicus, UniProt Q6RI86)", "IC50": "50 to 100 nM"}

Input: Given the compound Cc1oc2c(c1CC(=O)Nc1nc(-c3cc(Cl)c(OCC(C)C)c(Cl)c3)cs1)c(=O)n(C)c(=O)n2C [Example 82] , what is its reported IC50?
Output: < 50 nM

Input: Query Cc1oc2c(c1CC(=O)Nc1nc(-c3cc(F)c(OCC(C)(C)C)c(F)c3)cs1)c(=O)n(C)c(=O)n2C [Example 80] next
Output: < 50 nM

Input: Query Cn1c(=O)c2c(CC(=O)Nc3nc(-c4cc(F)c(C(F)(F)F)c(F)c4)cs3)coc2n(C)c1=O [Example 36] next
Output: 50 to 100 nM

---

subjectOfTest: human TRPA1 (Homo sapiens)
Construct: expressed in transfected cells; host or cells: CHO cells (G-418 selection)
assayOverview: 45Calcium uptake assay: inhibition of AITC induced cellular uptake of radioactive calcium, human TRPA1 expressing CHO cells
Format: cell-based
statedConditions: 10.0 μM compound, AITC 30 μM, read-out: human TRPA1 Percentage inhibition at 10.0 μM
quantityName: inhibition at 10 µM (%)
Respond numerically; units are % and should not be typed.

Look over these answered cases.
{"testSmiles": "Cc1oc2c(c1CC(=O)Nc1nc(-c3ccc(OC(F)(F)F)cc3)cs1)c(=O)n(C)c(=O)n2C", "subjectOfTest": "human TRPA1 (Homo sapiens)", "displayUnit": "%", "inhibition at 10 µM": 97.3}
{"testSmiles": "Cn1c(=O)c2c(CC(=O)Nc3nc(-c4cc(Cl)c(OCC(F)(F)F)c(Cl)c4)cs3)coc2n(C)c1=O", "subjectOfTest": "human TRPA1 (Homo sapiens)", "displayUnit": "%", "inhibition at 10 µM": 99.8}
{"testSmiles": "Cn1c(=O)c2c(CC(=O)Nc3nc(-c4ccc(F)c(Br)c4)cs3)coc2n(C)c1=O", "subjectOfTest": "human TRPA1 (Homo sapiens)", "displayUnit": "%", "inhibition at 10 µM": 97.7}
{"testSmiles": "Cc1oc2c(c1CC(=O)Nc1nc(-c3ccc(C(F)(F)F)cc3)cs1)c(=O)n(C)c(=O)n2C", "subjectOfTest": "human TRPA1 (Homo sapiens)", "displayUnit": "%", "inhibition at 10 µM": 98.3}
{"testSmiles": "Cn1c(=O)c2c(CC(=O)Nc3nc(-c4ccc(OC(F)F)c(Br)c4)cs3)coc2n(C)c1=O", "subjectOfTest": "human TRPA1 (Homo sapiens)", "displayUnit": "%", "inhibition at 10 µM": 99.8}
{"testSmiles": "Cn1c(=O)c2c(CC(=O)Nc3nc(-c4ccc(Cl)c(C(F)(F)F)c4)cs3)coc2n(C)c1=O", "subjectOfTest": "human TRPA1 (Homo sapiens)", "displayUnit": "%", "inhibition at 10 µM": 100}

Input: Given the compound Cn1c(=O)c2c(CC(=O)Nc3nc(-c4ccc(F)cc4F)cs3)coc2n(C)c1=O , what is its reported inhibition at 10 µM?
Output: 98.4

Input: Query Cn1c(=O)c2c(CC(=O)Nc3nc(-c4cc(F)c(OCC5CC5)c(F)c4)cs3)coc2n(C)c1=O next
Output: 98.7

Input: Query Cn1c(=O)c2c(CC(=O)Nc3nc(-c4ccc(OC(F)F)c(Cl)c4)cs3)coc2n(C)c1=O next
Output: 99.8

Input: Query Cc1oc2c(c1CC(=O)Nc1nc(-c3ccc(C(F)(F)F)c(Cl)c3)cs1)c(=O)n(C)c(=O)n2C next
Output: 99.8

Input: Query Cn1c(=O)c2c(CC(=O)Nc3nc(-c4cc(Cl)c(OC(F)F)c(Cl)c4)cs3)coc2n(C)c1=O next
Output: 99.9
